Provide the reported viability, T/C of each item.
Test system: 883617-216-R-J1-PDC tumor spheroids, viability
protocol: Anticancer human tumor 883617-216-R-J1-PDC patient-derived bladder carcinoma cell line growth inhibition [PI3K]
protocol_conditions: second compound 0.0316 µM; first compound 0.316 µM; stronger effect = lower value; spheroids with HUVEC and MSC
Give just the number in %; leave the unit off.

Give the reported viability, T/C for C[C@@H](NC(=O)c1ncnc(N)c1Cl)c1ncc(C(=O)Nc2cc(C(F)(F)F)c(Cl)cn2)s1 + COc1c(OCCCN2CCOCC2)ccc2c3n(c(=NC(=O)c4cnc(N)nc4)nc12)CCN3 (system: 883617-216-R-J1-PDC tumor spheroids, viability). 42.1

Give the reported viability, T/C for CC1(C)CCC(CN2CCN(c3ccc(C(=O)NS(=O)(=O)c4ccc(NCC5CCOCC5)c([N+](=O)[O-])c4)c(Oc4cnc5[nH]ccc5c4)c3)CC2)=C(c2ccc(Cl)cc2)C1 + CC(Nc1ccc2c(c1)OCCn1cc(N3C(=O)OCC3C(F)F)nc1-2)C(N)=O (system: 883617-216-R-J1-PDC tumor spheroids, viability). 65.5

Give the reported viability, T/C for CC(Cn1ccc(-c2ccc(C#N)c(Cl)c2)n1)NC(=O)c1cc(C(C)O)[nH]n1 (centres undefined) + COc1c(OCCCN2CCOCC2)ccc2c3n(c(=NC(=O)c4cnc(N)nc4)nc12)CCN3 (system: 883617-216-R-J1-PDC tumor spheroids, viability). 37.3

Give the reported viability, T/C for CCCS(=O)(=O)Nc1ccc(F)c(C(=O)c2c[nH]c3ncc(-c4ccc(Cl)cc4)cc23)c1F + Cc1nc(NC(=O)N2CCCC2C(N)=O)sc1-c1ccnc(C(C)(C)C(F)(F)F)c1 (system: 883617-216-R-J1-PDC tumor spheroids, viability). 88.1

* * *

Provide the reported IC50 of each item.
Test system: 883617-216-R-J1-PDC tumor spheroids, viability
protocol: Anticancer human tumor 883617-216-R-J1-PDC cell line growth inhibition [PI3K];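 also: spheroids exposed to agents for 7 days before the viability read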
protocol_conditions: curve of first compound; second compound 0.00316 µM; spheroids with HUVEC and MSC

Look up IC50: C[C@@H](NC(=O)c1ncnc(N)c1Cl)c1ncc(C(=O)Nc2cc(C(F)(F)F)c(Cl)cn2)s1 + COc1c(OCCCN2CCOCC2)ccc2c3n(c(=NC(=O)c4cnc(N)nc4)nc12)CCN3 > 10 µM

Look up IC50: C=CC(=O)N1CCN(c2nc(=O)n(-c3c(C)ccnc3C(C)C)c3nc(-c4c(O)cccc4F)c(F)cc23)C(C)C1 (stereo not given) + COc1c(OCCCN2CCOCC2)ccc2c3n(c(=NC(=O)c4cnc(N)nc4)nc12)CCN3 < 0.0316 µM

Look up IC50: C=CC(=O)N1CCN(c2nc(=O)n(-c3c(C)ccnc3C(C)C)c3nc(-c4c(O)cccc4F)c(F)cc23)C(C)C1 (stereo not given) + CC(Nc1ccc2c(c1)OCCn1cc(N3C(=O)OCC3C(F)F)nc1-2)C(N)=O > 10 µM

Look up IC50: Cn1ncnc1[C@H]1c2n[nH]c(=O)c3cc(F)cc(c23)N[C@@H]1c1ccc(F)cc1 + CC(Nc1ccc2c(c1)OCCn1cc(N3C(=O)OCC3C(F)F)nc1-2)C(N)=O > 0.1 µM

Look up IC50: CC1(C)CCC(Nc2ncc(C(F)(F)F)c(-c3c[nH]c4c(P(C)(C)=O)c(C#N)ccc34)n2)CN1 (stereo not given) + COc1c(OCCCN2CCOCC2)ccc2c3n(c(=NC(=O)c4cnc(N)nc4)nc12)CCN3 < 0.0316 µM

Look up IC50: CC1(C)CCC(Nc2ncc(C(F)(F)F)c(-c3c[nH]c4c(P(C)(C)=O)c(C#N)ccc34)n2)CN1 (stereo not given) + CC(Nc1ccc2c(c1)OCCn1cc(N3C(=O)OCC3C(F)F)nc1-2)C(N)=O < 0.0316 µM

Look up IC50: CC(Cn1ccc(-c2ccc(C#N)c(Cl)c2)n1)NC(=O)c1cc(C(C)O)[nH]n1 (stereo not given) + COc1c(OCCCN2CCOCC2)ccc2c3n(c(=NC(=O)c4cnc(N)nc4)nc12)CCN3 > 10 µM

Look up IC50: Cn1ncnc1[C@H]1c2n[nH]c(=O)c3cc(F)cc(c23)N[C@@H]1c1ccc(F)cc1 + COc1c(OCCCN2CCOCC2)ccc2c3n(c(=NC(=O)c4cnc(N)nc4)nc12)CCN3 > 0.1 µM

Look up IC50: CC(Cn1ccc(-c2ccc(C#N)c(Cl)c2)n1)NC(=O)c1cc(C(C)O)[nH]n1 (stereo not given) + CC(Nc1ccc2c(c1)OCCn1cc(N3C(=O)OCC3C(F)F)nc1-2)C(N)=O > 10 µM

Look up IC50: C#Cc1c(F)ccc2cc(O)cc(-c3ncc4c(N5CC6CCC(C5)N6)nc(OCC56CCCN5CC(F)C6)nc4c3F)c12 (stereo not given) + CC(Nc1ccc2c(c1)OCCn1cc(N3C(=O)OCC3C(F)F)nc1-2)C(N)=O > 10 µM
